Give measured GI50 for each item. Keep answers brief.
- Test system: UACC-62
- experiment_summary: NCI tumour cell line growth inhibition, 48 h
Active and inactive are the calls of the source. Cut-off read from the data, not from the text of the source: active = GI50 up to about 1.1 µM and inactive = higher.

Consider COc1cccc(N(CN2C(=O)CCC2C(=O)O)C(C)=O)c1 (stereo unspecified) . Its measured GI50 is > 100 µM (inactive)

Consider O=C(CCN1CCC(CCO)CC1)Nc1ccc2c(c1)C(=O)c1ccc(NC(=O)CCN3CCC(CCO)CC3)cc1C2=O . Its measured GI50 is 9.04 µM (inactive)

Consider Cc1cccc(C(O)c2ccncc2)c1O (stereo unspecified) . Its measured GI50 is 25.8 µM (inactive)

Consider CCOC(=O)/C(C#N)=C/c1ccc(SCc2ccco2)c([N+](=O)[O-])c1 . Its measured GI50 is 57 µM (inactive)

Consider COc1cc([C@@H]2c3cc4c(cc3[C@H](OC3OC5COC(c6ccco6)OC5C(O)C3O)C3COC(=O)[C@@H]32)OCO4)cc(OC)c1OC (stereo partly specified) . Its measured GI50 is 4.73 µM (inactive)

Consider OC(CN1CCCCC1)c1ccc(/C=C/c2ccc(Cl)cc2)cc1 (stereo unspecified) . Its measured GI50 is 24.3 µM (inactive)

Consider CCOC(=O)[C@H](CO)NC1=C(Cl)C(=O)c2c(O)ccc(O)c2C1=O . Its measured GI50 is > 10 µM (inactive)

Consider Cc1cc(C)n2c(nc3ccccc32)c1C#N . Its measured GI50 is > 100 µM (inactive)

Consider CCOC(=O)CCC(C(=O)OCC)n1nnc2cc(Nc3c(C)[n+]([O-])c4cc(F)c(OCC)cc4[n+]3[O-])ccc21 (stereo unspecified) . Its measured GI50 is > 100 µM (inactive)

Consider O=c1cc(NNc2ccc(F)cc2)[nH]c(=O)[nH]1 . Its measured GI50 is 15.1 µM (inactive)

Consider Cc1ccc(S(=O)(=O)N2CCNCCN(S(=O)(=O)c3ccc(C)cc3)CCNCC2)cc1 . Its measured GI50 is 18.8 µM (inactive)

Consider COc1ccc(-c2nnc(CCCCCCCCc3nnc(-c4ccc(OC)cc4)n3N)n2N)cc1 . Its measured GI50 is > 92 µM (inactive)

Consider Oc1ccc(NCn2c(=S)sc3ccccc32)cc1 . Its measured GI50 is 84.5 µM (inactive)

Consider Cc1c(C#N)c(N)n(C2OC(CO)C(O)C(O)C2O)c(=S)c1C#N (stereo unspecified) . Its measured GI50 is > 100 µM (inactive)

Consider Cc1ccc(S(=O)(=O)N(CC(=O)O)c2ccccc2)cc1 . Its measured GI50 is > 100 µM (inactive)

Consider O=C1OC(C2(O)OC(=O)c3ccccc32)c2ccccc21 (stereo unspecified) . Its measured GI50 is > 100 µM (inactive)

Consider COc1ccc(C(=O)NCCC2=CCCCC2)cc1 . Its measured GI50 is > 100 µM (inactive)

Consider Cn1c2ccccc2c(=O)c2cccc(C(=O)NC(CCC(N)=O)C(=O)O)c21 (stereo unspecified) . Its measured GI50 is > 100 µM (inactive)

Consider Nc1ncnc2oc(C3OC(COC(=O)c4ccccc4)C(OC(=O)c4ccccc4)C3OC(=O)c3ccccc3)nc12 (stereo unspecified) . Its measured GI50 is 74.8 µM (inactive)

Consider Cc1ccc(OCC2OC(n3cnc4c(Cl)nc(Cl)nc43)CC2Oc2ccc(C)cc2)cc1 (stereo unspecified) . Its measured GI50 is 1.98 µM (inactive)

Consider Cc1ccc(S(=O)(=O)N/N=C2\CCC3(O)CC2(C)CCC2C3CC2(C)C)cc1 (stereo unspecified) . Its measured GI50 is 36.6 µM (inactive)
